The values you see were collected from paper PMC6332334.

# SUBJECT_OF_TEST: cruzipain (Trypanosoma cruzi)
# Construct: endogenous in cells
# Sequence (P25779 123-467): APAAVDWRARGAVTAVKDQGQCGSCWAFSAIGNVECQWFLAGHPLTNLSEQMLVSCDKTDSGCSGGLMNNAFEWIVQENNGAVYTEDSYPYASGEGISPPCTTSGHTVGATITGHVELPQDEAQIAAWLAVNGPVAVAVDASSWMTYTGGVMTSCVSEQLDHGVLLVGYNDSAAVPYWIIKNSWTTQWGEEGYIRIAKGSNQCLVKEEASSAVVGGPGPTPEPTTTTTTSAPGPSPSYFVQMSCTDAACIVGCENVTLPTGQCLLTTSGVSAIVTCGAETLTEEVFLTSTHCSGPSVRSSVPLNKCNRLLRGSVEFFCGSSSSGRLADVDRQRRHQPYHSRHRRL
# EXPERIMENT: Inhibition of T. cruzi cruzipain (Z-Phe-Arg-AMC fluorogenic substrate)
# TEST_CONTEXT: isolated enzyme
pIC50: −log10 of the molar value.
# label = Y if pIC50 >= 5 else N

Does pIC50 meet or surpass 5 for "O=C(COc1ccc(-c2cc(=S)ss2)cc1)c1ccccc1" ?
N

# iterate: "O=C(COc1ccc(-c2cc(=S)ss2)cc1)c1ccc2ccccc2c1"
N

Would you mind doing "COc1ccc(-c2cc(=[S+]CC(=O)c3ccc4ccccc4c3)ss2)cc1" as well?
N

Cool, now "CC(=O)COc1ccc(C2=C/C(=C(\SCC(C)=O)C(C)=O)SS2)cc1"
N

Next compound: "COc1ccc(C2=C/C(=C(\SCC(C)=O)C(C)=O)SS2)cc1"
N

Same lookup for "COc1ccc(-c2cc(=S)ss2)cc1" , please.
Y
